- test protocol: Example 18 Part 2: multiple dose PK (20 mg QID) of 3,4-DAP and 3-N-acetyl metabolite in slow and fast acetylators
- Assay type: in vivo, human
- applied conditions: both sexes, human, plasma, oral, 20 mg, Day 3, slow acetylators, Dose 4 interval, 20 mg QID, arith. mean; read-out: Vz/F
assay metric: Vd/F (L)
A number alone suffices; assume L.

Req: Which Vd/F value belongs to CC(=O)Nc1cnccc1N [3-N-acetyl amifampridine, N-(4-aminopyridin-3-yl)acetamide] ?
Resp: 78.3

* * *

- test protocol: Example 18 Part 2: multiple dose PK (20 mg QID) of 3,4-DAP and 3-N-acetyl metabolite in slow and fast acetylators
- Assay type: in vivo, human
- applied conditions: both sexes, human, plasma, oral, 20 mg, Day 1, slow acetylators, Dose 3 interval, 20 mg QID, arith. mean; read-out: t1/2 (converted)
assay metric: half-life (h)
The reply should be a number in h, with the unit left off.

Req: Dear colleague, I am looking for the recorded half-life of the following compound: CC(=O)Nc1cnccc1N [3-N-acetyl amifampridine, N-(4-aminopyridin-3-yl)acetamide]
Resp: 4

* * *

- test protocol: Example 18 Part 2: multiple dose PK (20 mg QID) of 3,4-DAP and 3-N-acetyl metabolite in slow and fast acetylators
- Assay type: in vivo, human
- applied conditions: both sexes, human, plasma, oral, 20 mg, Day 3, fast acetylators, Dose 2 interval, 20 mg QID, arith. mean; read-out: t1/2 (converted)
assay metric: half-life (h)
Provide the reading as a plain figure in h.

Req: For the compound CC(=O)Nc1cnccc1N [3-N-acetyl amifampridine, N-(4-aminopyridin-3-yl)acetamide] , what half-life is on record?
Resp: 3.6

* * *

- test protocol: Food-effect crossover study, plasma and urine PK after single 20 mg amifampridine phosphate in healthy subjects (Examples 10, 12)
- Assay type: in vivo, human
- applied conditions: human, plasma, oral, 20 mg, fasted; read-out: Cmax, individual subject range
assay metric: Cmax

Req: Which Cmax is reported for this compound? "Nc1ccncc1N"
Resp: 0.016 to 0.137 µg/mL

* * *

- test protocol: Example 18 Part 2: multiple dose PK (20 mg QID) of 3,4-DAP and 3-N-acetyl metabolite in slow and fast acetylators
- Format: in vivo, human
- applied conditions: both sexes, human, plasma, oral, 20 mg, Day 3, Dose 2, slow acetylators, 20 mg QID; read-out: Mean t1/2 (converted)
- Experimental: The following method was used to analyze concentrations of 3,4-diaminopyridine and N-(4-aminopyridin-3-yl)acetamide in plasma and urine samples for the experiments in Example 18. […] Samples were analyzed by using HPLC with positive ion electrospray MS/MS detection. […] The LC/MS/MS method was validated to quantify 3,4-DAP in human plasma in the linear calibration range of 0.500 to 500 ng/mL and from 1.00 to 1000 ng/mL for the 3-N-acetyl metabolite. […]
assay metric: half-life (h)
Your answer is read as h, so omit the unit and give the number.

Req: What does the data say about its half-life? Entry: Nc1ccncc1N [3,4-DAP, 3,4-diaminopyridine]
Resp: 1.97

* * *

- test protocol: Example 18 Part 2: multiple dose PK (20 mg QID) of 3,4-DAP and 3-N-acetyl metabolite in slow and fast acetylators
- Format: in vivo, human
- applied conditions: both sexes, human, plasma, oral, 20 mg, Day 1, Dose 3, slow acetylators, 20 mg QID; read-out: Mean t1/2 (converted)
assay metric: half-life (h)
Lab book: enter the figure in h, no units written.

Req: So what does the record say about half-life for "Nc1ccncc1N" ?
Resp: 1.59
